Quick reference for growth among some compounds
# Tested on: RXF 393 renal
# protocol-summary: NCI-60 one-dose screen, 48 h (100 = growth as untreated, 0 = no growth, -100 = all killed)
# conditions: 10 µM unless noted
Compounds without any hit were thinned out: in the full panel of roughly 83,000, 20% have a hit.
A number alone suffices; assume %.

Here's what some known entries look like.
NC(=S)N1N=C(c2ccccc2)CC1c1cn(-c2ccccc2)nc1-c1ccc(OCc2ccccc2)cc1 (stereo not given) :: 110
CC(C)(C)[Si](C)(C)OC1[C@@H](O[Si](C)(C)C(C)(C)C)[C@@H](CNC(=O)NC(=O)CCl)O[C@H]1n1cnc2c(NC(=O)Nc3ccccc3)ncnc21 (stereo not given in full) :: -93.1
O=C(/C(=C/c1ccc([N+](=O)[O-])cc1)SCc1ccc(F)cc1)c1ccc(F)cc1 :: 97
Cc1nc(N)nc(N[C@@H](C)c2nc3cccc(NCc4ccc(C(=O)NO)cc4)c3c(=O)n2-c2ccccc2)n1 :: 65
COc1cccc(/C=N/NC(=O)c2cnn3c2NC(c2ccccc2)C3)c1Oc1ccccc1 (stereo not given) :: 82.1
CCN(CC)c1ccc(C(=O)c2ccccc2)cc1 :: 111
c1ccc2c(-c3nccs3)c[nH]c2c1 :: 95
[O-][n+]1c(Cl)cc(Cl)c2ccccc21 :: 153

Inquiry: Using the record for `Cc1cccc(C)c1N=c1oc2ccc(Cl)cc2nc1-c1ccccc1O` , report its growth.
Reply text: 90.9

Inquiry: // growth lookup, key: `Cc1cccc(NC(=O)Nc2ccc(-n3cnc4cc(-c5ccc(O)cc5)ccc43)cc2)c1`
Reply text: 58.4

====

# Test system: EKVX NSCLC
# protocol-summary: NCI-60 one-dose screen, 48 h (100 = growth as untreated, 0 = no growth, -100 = all killed)
# conditions: 10 µM unless noted
# Protocol: Growth inhibition of the EKVX human Non-Small Cell Lung tumor cell line is measured as a screen for anti-cancer activity. Cells are grown in 96 well plates and exposed to the test compound for 48 hours. Compounds are tested at a single concentration, which is 10^-5 M for most compounds. The reported endpoint is percent growth (GI% or GIPRCNT), where numbers from 0 - 100% represent growth inhibition, and numbers from -100% - 0 represent cell death. […]
This is part of a sample that, as a whole, favours compounds with a hit. Of some 83,000 tested, about 20% had one in any assay.
measurement-type: growth (%)
State the answer as a number, implicitly in %.

Cc1nn(-c2ccccc2)c(Oc2c(Cl)cccc2Cl)c1/C=N/N=c1\sc2ccccc2n1C :: 77.9
Cc1c(C(=O)NCCC(=O)NO)sc2ncnc(Nc3ccc(NC(=O)Nc4cccc(C(F)(F)F)c4)cc3)c12 :: 90.8
COc1ccc(NC(=O)c2cc(NCc3cc(O)ccc3O)ccc2O)cc1 :: 100

Below: the item to evaluate.
Inquiry: # lookup: growth of `C=C(C)[C@@H]1CC[C@]2(C(=O)N3CCN(C)CC3)CC[C@]3(C)[C@H](CC[C@@H]4[C@@]5(C)CC[C@H](O)C(C)(C)[C@@H]5CC[C@]43C)[C@@H]12`
Reply text: 92.5

====

# Tested on: EKVX NSCLC
# protocol-summary: NCI-60 one-dose screen, 48 h (100 = growth as untreated, 0 = no growth, -100 = all killed)
# conditions: 10 µM unless noted
About 83,000 compounds went through this panel and 20% of them were active in at least one assay; those are over-represented in the sample as a whole. Activity calls are given as the source filed them. The calls were made as follows: active = growth percent below 10; inactive = the rest.
measurement-type: growth

Reference set, count: 5
Cc1nn(-c2ccccc2)c(Cl)c1/C=N\N=c1/sc2ccccc2n1C :: 110% (inactive)
CCCCC[n+]1ccc(SCC(=O)N(C)c2ccc(Oc3ccccc3)cc2)c2ccccc21 :: 114% (inactive)
O=C(Nc1ccc(-c2ccc3c(c2)NC(=O)/C3=C\c2ccc[nH]2)cc1)NC1CC1 :: 47.5% (inactive)
Cc1nc2sccn2c1-c1nc2sccn2c1/C=C1/C(=O)Nc2ccccc21 :: 56.6% (inactive)
COc1cc(/C=N/NC(=O)c2cnn3c2NC(c2ccccc2)C3)ccc1Oc1ccccc1 (configuration not stated) :: 58.1% (inactive)

Inquiry: What growth value was documented for this compound, `CC1(C)c2[nH]c3ccccc3c2C[C@]2(C)[C@H]3C(=O)C=C4[C@@H]5C[C@@](C)(C(N)=O)CC[C@]5(C)CC[C@@]4(C)[C@]3(C)CC[C@@H]12` ?
Reply text: 68.4% (inactive)

Inquiry: Quick one: growth of `COc1ccc(/C=C/c2nc(Nc3ccc(S(=O)(=O)NC(C)=O)cc3)c3ccccc3n2)cc1` ?
Reply text: 81.6% (inactive)

Inquiry: Using the record for `COc1cc(/C=C\c2cc(OC)c(OC)c(OC)c2)cc(NC(=O)/C=C/c2cc(OC)c(OC)c(OC)c2)c1OC` , report its growth.
Reply text: 47.6% (inactive)

Inquiry: Suppose we examine the compound `O=C(NCCc1ccccc1)Nc1ccc2cc3ccc(NC(=O)NCCc4ccccc4)cc3nc2c1` ; what growth value has been reported?
Reply text: 71.9% (inactive)

Inquiry: Look up growth: `COc1cc2c(-c3cc4c(cc3CNCCc3ccc5c(c3)OCO5)OCO4)cccc2c(OC)c1O`
Reply text: 77.4% (inactive)

Inquiry: Which growth reading was recorded for the compound `COc1cc2nc(-c3ccc(Cl)cc3)cc(OCCCN3CCC(O)CC3)c2cc1OC` ?
Reply text: 56.7% (inactive)

====

# Tested on: HCT-116 colon
# protocol-summary: NCI-60 one-dose screen, 48 h (100 = growth as untreated, 0 = no growth, -100 = all killed)
# conditions: 10 µM unless noted
# Protocol: Growth inhibition of the HCT-116 human tumor cell line is measured as a screen for anti-cancer activity. Cells are grown in 96 well plates and exposed to the test compound for 48 hours. Compounds are tested at a single concentration, which is 10^-5 M for most compounds. The reported endpoint is percent growth (GI% or GIPRCNT), where numbers from 0 - 100% represent growth inhibition, and numbers from -100% - 0 represent cell death. For example, a value of 40 represents 60% growth inhibition. […]
Compounds without any hit were thinned out: in the full panel of roughly 83,000, 20% have a hit.
Entries and their measured growth follow.
Field: numeric (%). Do not append units.

Worked cases, growth given:
COc1ccc(C(=O)C2C(C#N)C(C#N)C3c4ccccc4C=CN23)cc1 (stereo not given) :: 86.1
O=C(Nc1ccc(NC(=O)c2cc(=O)[nH]c3ccccc23)cc1)Nc1cccc(Cl)c1 :: 82
N#Cc1cccc(-c2ccc3c(c2)NC(=O)/C3=C\c2ccc[nH]2)c1 :: 73
CCCN1[C@@H]2CC[C@H]1/C(=C\c1ccc(OC)c(OC)c1)C(=O)/C2=C/c1ccc(OC)c(OC)c1 :: 22.1
COc1cc2nc(-c3ccc(Cl)cc3)cc(OCCCN3CCOCC3)c2cc1OC :: 21.1

Now consider a different compound.
Inquiry: Bench note: what growth did `Cc1nn(-c2ccccc2)c(Cl)c1/C=N\N=c1/sc2ccccc2n1C` show?
Reply text: 84.5

====

Readings of growth for the listed compounds
# Tested on: NCI/ADR-RES ovarian
# protocol-summary: NCI-60 one-dose screen, 48 h (100 = growth as untreated, 0 = no growth, -100 = all killed)
# conditions: 10 µM unless noted
Compounds without any hit were thinned out: in the full panel of roughly 83,000, 20% have a hit.
Dear colleague, please return just the value in %, with no unit written.

As a guide, the following entries are already answered.
CN(C)CCn1c2ccc(Br)cc2c2nc3ccccc3nc21 :: 31.8
O=c1[nH]nc(-c2ccccc2)c2sc3ncc(-c4ccc(Br)cc4)n3c12 :: 98.2
O=C(c1nc2ccccc2[nH]1)C1C(c2ccc(Br)cc2)C2CC3CCCC[C@H]3N2[C@@]12C(=O)Nc1cc(Cl)ccc12 (stereo not given in full) :: 46.7

Inquiry: Under NCI/ADR-RES ovarian: growth value of `CC(=O)c1cc2c(N)c(C(=O)Nc3cccc4ccncc34)sc2nc1C` ?
Reply text: 108

Inquiry: Find growth (NCI/ADR-RES ovarian) for the entry `O=S(=O)(NCCNc1nccc(-c2c(-c3cccc(F)c3)nc3sccn23)n1)c1ccc(Cl)cc1`
Reply text: 67.7

====

# Tested on: ACHN renal
# protocol-summary: NCI-60 one-dose screen, 48 h
# conditions: 10 µM unless noted
# Method: Growth inhibition of the ACHN human tumor cell line is measured as a screen for anti-cancer activity. Cells are grown in 96 well plates and exposed to the test compound for 48 hours. Compounds are tested at a single concentration, which is 10^-5 M for most compounds. The reported endpoint is percent growth (GI% or GIPRCNT), where numbers from 0 - 100% represent growth inhibition, and numbers from -100% - 0 represent cell death. For example, a value of 40 represents 60% growth inhibition. […]
The panel holds about 83,000 compounds, 20% with a hit somewhere; the sample as a whole holds those more often. Calls of active or inactive are those of the source. Rule for the calls: active = growth percent below 10; inactive = the rest.
The reply should name one outcome from t = active, f = inactive

These recorded examples may help you get a feel for the data.
CCOC(=O)c1cc(C(=O)c2ccc(OC)c(OC)c2)n2ccc(/C=C/c3cc[n+](CC(=O)c4ccc(OC)c(OC)c4)cc3)cc12 :: f
O=C(Nc1ccc(F)cc1)Nc1ccc(NC(=O)c2cc(Cl)nc3ccccc23)cc1 :: f

Inquiry: // outcome(item) with item = `O=C(Nc1ccc(NC(=O)c2cc(=O)[nH]c3ccccc23)cc1)Nc1cccc(Cl)c1`
Reply text: f

Inquiry: Any idea what this test logged for CCCCCCCCO/N=C\c1c2c(O)c3c(O)c(C)c4c(c3c1O)C(=O)C(C)(O/C=C\C(OC)C(C)C(OC(C)=O)C(C)C(O)C(C)C(O)C(C)/C=C\C=C(\C)C(=O)N2)O4 (configuration not stated) ?
Reply text: f

Inquiry: What did this assay record as the result for `CCN1C(=O)/C(=C/C(=O)OC)S/C1=N\NC(=O)c1cc2ccc1/C=C\c1ccc(cc1)/C=C\2` ?
Reply text: f

Inquiry: Lab log entry: `C=C(C)[C@@H]1CC[C@]2(C(=O)N[C@H](CO)Cc3ccccc3)CC[C@]3(C)[C@H](CC[C@@H]4[C@@]5(C)CCCNC(C)(C)[C@@H]5CC[C@]43C)[C@@H]12` — outcome as called in the assay?
Reply text: t

Inquiry: // outcome(item) with item = `COc1ccc(C(=O)c2cc(C)c(OC)c(C)c2)c(OC)c1N(C(=O)CCl)C(=O)CCl`
Reply text: f

Inquiry: Write down the call the test reported for this compound. Item: `COc1cc(/C=C\C(=O)O)ccc1OCc1ccccc1`
Reply text: f

Every entry's value here was drawn from PubChem BioAssay (NCI).
